Reported Selectivity by item:
molecular target: pre-pro-human insulin

Field: example entries. Status: answers known.
protein | Selectivity
trypsin variant SEQ ID NO: 83 (protein) IVGGYTCAANSIPYQVSLNSGSHRCGGSLINSQWVVSAAHCYKPRIQVRLGEHNIHVLEGNEQFINAAKIITHPNFNPNTLDNDIMLIKLSSPATLNSNVATVSLPTSCAAAGTECLISGWGNTSSSGSSMPSLLQCLKAPVLSDSSCKSSYPGQITGNMICVGFLEGGKDACQGDSGGPVVCNGQLQGIVSSGYGCAQKNKPGVYTKVCNYVNWIQQTIAAN | >90%
trypsin variant SEQ ID NO: 11 (protein) IVGGYTCAANSIPYQVSLNSGSHRCGGSLINSQWVVSAAHCYKSRIQVRLGEHNIDVLEGNEQFINAAKIITHPNFNGNTLDNDIMLIKLSSPATLNSNVATVSLPRSCAAAGTECLISGWGNTKSSGSSYPSLLQCLKAPVLSDSSCKSSYPGQITGNMICVGFLEGGKDACQGDSGGPVVCNGQLQGIVSSGYGCAQKNKPGVYTKVCNYVNWIQQTIAAN | >90%

Proceed to the following item.
[Q] Suppose we examine the protein trypsin variant SEQ ID NO: 98 (protein) IVGGYTCAANSIPYQVSLNSGSHRCGGSLINSQWVVSAAHCYKPRIQVRLGEHNIHVLEGNEQFINAAKIITHPNFNPNTLDNDIMLIKLSSPATLNSAVATVSLPTSCAAAGTECLISGWGNTASSGSSMPSLLQCLKAPVLSDSSCKSSYPGQITGNMICVGFLEGGADSCQGDSGGPVVCNGQLQGIVSSGYGCAQKNKPGVYTKVCNYVNWIQQTIAAN ; what Selectivity value has been reported?
[A] >90%
